Source: the supplement of paper PMC7600603

- Tested on: DLD1 NRF2-GOF
- Experiment notes: drug sensitivity score (DSS) cytotoxicity (DSS score); higher = more toxic; extreme values may be limits of the assay
- Assay context: 72 h; CellTox Green cytotoxicity
Could you label it true (1) if measured drug sensitivity score is 0.3 or higher, and false (0) otherwise?

Quick check: does `Cc1c(-c2c(-c3ccc(F)o3)sc3ncnc(O[C@H](Cc4ccccc4OCc4ccnn4CC(F)(F)F)C(=O)O)c23)ccc(OCCN2CCN(C)CC2)c1Cl` have drug sensitivity score greater than or equal to 0.3?
false (0)

Consider next the molecule O=C(Nc1c[nH]nc1-c1nc2ccc(CN3CCOCC3)cc2[nH]1)NC1CC1 [AT9283] in the same way.
true (1)

Same question, COC12C(COC(N)=O)C3=C(C(=O)C(C)=C(N)C3=O)N1CC1NC12 (stereo in doubt) [Mitomycin C] this time
false (0)

Note, next up: CNCc1ccc(-c2[nH]c3cc(F)cc4c3c2CCNC4=O)cc1 [Rucaparib]
false (0)

And then `O=C(O)c1ccc(-c2c[nH]c3ncc(-c4ccccc4)cc23)cc1C1CCCC1` , what is it?
true (1)

Cool, now Cc1cc(Nc2cc(CN3CCOCC3)c3nc(C)c(Cc4ccc(Cl)cc4F)n3n2)n[nH]1 [Gandotinib]
true (1)

Also CC[C@H](CO)Nc1nc(NCc2ccccc2)c2ncn(C(C)C)c2n1 [Seliciclib] , if possible.
false (0)

Also check COc1cc(C)[nH]c(=O)c1CNC(=O)c1c(C)n([C@H](C)C2CCOCC2)c2ccccc12 [CPI-360]
false (0)

Then this molecule: O=C(NOCCO)c1ccc2cncn2c1Nc1ccc(I)cc1F [GDC-0623]
false (0)

Another molecule: Cc1cc(Nc2cc(N3CCN(C)CC3)nc(Sc3ccc(NC(=O)C4CC4)cc3)n2)n[nH]1 [Tozasertib]
true (1)

Let us now turn to O=C(NC1CCNCC1)c1n[nH]cc1NC(=O)c1c(Cl)cccc1Cl [AT7519]
false (0)

Try the molecule CCCCCCCCc1ccc(CCC(N)(CO)CO)cc1 [Fingolimod]
true (1)

# iterate: CN[C@@H](C)C(=O)N[C@H]1CN(C(=O)CC(C)C)CC[C@H]2CC[C@@H](C(=O)NC(c3ccccc3)c3ccccc3)N2C1=O [AT-406]
false (0)

Same question for CC1(COc2ccc3c(c2)ncn3-c2ccc3cccc(N4CCC(N)CC4)c3n2)COC1 [Crenolanib] please.
true (1)

Queued: CC(O)c1cc(C(=O)N[C@@H](C)Cn2ccc(-c3ccc(C#N)c(Cl)c3)n2)n[nH]1 (some centres not stated) [ODM-201]
false (0)

Cool, now `CCn1c(C(=O)N(C2CC2)C2CC2)cc2c3c(ncn3C)c(Nc3cc(C)n(C)n3)nc21`
false (0)
